Just for reference, the supplement of paper PMC10567573 is where these values come from.

// values below are reported protein stability index
B1: ZBED2 (parent)
chain: FHLAPARAGHHPNQYATCRLCGRQ

- Variants of: B1
- ASSAY_INFO: protein stability index of a GFP-peptide fusion (GPS, HEK-293T) (PSI 1-6); higher = more stable;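 note: lentivirally expressed fusions sorted by FACS into six bins by GFP to DsRed ratio, PSI derived from sequencing read proportions per bin multiplied by bin number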
- MEASUREMENT_SETUP: c terminus: a fixed tail appended

// worked examples, protein stability index included
[
  {
    "MUTATION": "P5T",
    "protein stability index": 2.32
  },
  {
    "MUTATION": "H10M",
    "protein stability index": 2.81
  },
  {
    "MUTATION": "R7K",
    "protein stability index": 2.59
  },
  {
    "MUTATION": "C21I",
    "protein stability index": 1.74
  },
  {
    "MUTATION": "H11M",
    "protein stability index": 2.35
  },
  {
    "MUTATION": "H11A",
    "protein stability index": 2.48
  },
  {
    "MUTATION": "N13E",
    "protein stability index": 3.21
  },
  {
    "MUTATION": "H11F",
    "protein stability index": 1.98
  },
  {
    "MUTATION": "L20S",
    "protein stability index": 2.22
  },
  {
    "MUTATION": "H10S",
    "protein stability index": 2.24
  }
]

Looking up `C18V` , I found its protein stability index recorded as 2.25

Looking up `P5E` , I found its protein stability index recorded as 2.36

Looking up `P5A` , I found its protein stability index recorded as 2.78

Looking up `A8Q` , I found its protein stability index recorded as 2.02

Looking up `A8V` , I found its protein stability index recorded as 1.65

Looking up `F1M` , I found its protein stability index recorded as 2.1
